Test system: HOP-62
Test: relative viability (nuclei count vs DMSO), 5 days (fraction); higher = more cells survive
Conditions: first compound 0.005 µM
readout: relative viability
Provide a numeric answer; units are not to be included.

Sample answers from the record:
1. CC1(C)CCC(c2ccc(Cl)cc2)=C(CN2CCN(c3ccc(C(=O)NS(=O)(=O)c4ccc(N[C@H](CCN5CCOCC5)CSc5ccccc5)c(S(=O)(=O)C(F)(F)F)c4)cc3)CC2)C1 [Navitoclax] + CC(=O)Nc1cccc(-n2c(=O)n(C3CC3)c(=O)c3c(Nc4ccc(I)cc4F)n(C)c(=O)c(C)c32)c1 [Trametinib] (partner 0.02 µM) :: 0.377
2. CC1(C)CCC(c2ccc(Cl)cc2)=C(CN2CCN(c3ccc(C(=O)NS(=O)(=O)c4ccc(N[C@H](CCN5CCOCC5)CSc5ccccc5)c(S(=O)(=O)C(F)(F)F)c4)cc3)CC2)C1 [Navitoclax] + Cc1nc(NC(=O)N2CCC[C@H]2C(N)=O)sc1-c1ccnc(C(C)(C)C(F)(F)F)c1 [Alpelisib] (partner 2 µM) :: 0.781
3. CC1(C)CCC(c2ccc(Cl)cc2)=C(CN2CCN(c3ccc(C(=O)NS(=O)(=O)c4ccc(N[C@H](CCN5CCOCC5)CSc5ccccc5)c(S(=O)(=O)C(F)(F)F)c4)cc3)CC2)C1 [Navitoclax] + CS(=O)(=O)N1CCN(Cc2cc3nc(-c4cccc5[nH]ncc45)nc(N4CCOCC4)c3s2)CC1 [Pictilisib] (partner 1 µM) :: 0.803
4. CC1(C)CCC(c2ccc(Cl)cc2)=C(CN2CCN(c3ccc(C(=O)NS(=O)(=O)c4ccc(N[C@H](CCN5CCOCC5)CSc5ccccc5)c(S(=O)(=O)C(F)(F)F)c4)cc3)CC2)C1 [Navitoclax] + Cc1nc(Nc2ncc(C(=O)Nc3c(C)cccc3Cl)s2)cc(N2CCN(CCO)CC2)n1 [Dasatinib] (partner 0.075 µM) :: 0.593

Lab note: next compound to report on.
So the reported relative viability for CC1(C)CCC(c2ccc(Cl)cc2)=C(CN2CCN(c3ccc(C(=O)NS(=O)(=O)c4ccc(N[C@H](CCN5CCOCC5)CSc5ccccc5)c(S(=O)(=O)C(F)(F)F)c4)cc3)CC2)C1 [Navitoclax] + CCNC(=O)c1noc(-c2cc(C(C)C)c(O)cc2O)c1-c1ccc(CN2CCOCC2)cc1 [Luminespib] (partner 0.01 µM) , on HOP-62, turned out to be 0.913

###

The following compounds are listed with their measured relative viability values.
Test system: NCI-H2405
Experiment: relative viability (nuclei count vs DMSO), 5 days (fraction); higher = more cells survive
Conditions: first compound 8 µM
Provide a numeric answer; units are not to be included.

1. C=C1C(=O)O[C@@H](CCCCCCCC)[C@@H]1C(=O)O [C-75] + Nc1ncn([C@H]2C[C@H](O)[C@@H](CO)O2)c(=O)n1 [Decitabine] (partner 2 µM) :: 0.789

So the reported relative viability for C=C1C(=O)O[C@@H](CCCCCCCC)[C@@H]1C(=O)O [C-75] + C[C@@H](Oc1cc(-c2cnn(C3CCNCC3)c2)cnc1N)c1c(Cl)ccc(F)c1Cl [Crizotinib] (partner 1 µM) , on NCI-H2405, turned out to be 0.868

###

Tested on: NCI-H2009
Test: relative viability (nuclei count vs DMSO), 5 days (fraction); higher = more cells survive
Details: first compound 0.01581 µM
readout: relative viability

Sample answers from the record:
1) CC1(C)CCC(c2ccc(Cl)cc2)=C(CN2CCN(c3ccc(C(=O)NS(=O)(=O)c4ccc(N[C@H](CCN5CCOCC5)CSc5ccccc5)c(S(=O)(=O)C(F)(F)F)c4)cc3)CC2)C1 [Navitoclax] + Cc1cc(Nc2cc(N3CCN(C)CC3)nc(Sc3ccc(NC(=O)C4CC4)cc3)n2)n[nH]1 [Tozasertib] (partner 0.1 µM) :: 0.79
2) CC1(C)CCC(c2ccc(Cl)cc2)=C(CN2CCN(c3ccc(C(=O)NS(=O)(=O)c4ccc(N[C@H](CCN5CCOCC5)CSc5ccccc5)c(S(=O)(=O)C(F)(F)F)c4)cc3)CC2)C1 [Navitoclax] + N=C(N)NC(=N)NCCc1ccccc1 [Phenformin] (partner 250 µM) :: 0.519
3) CC1(C)CCC(c2ccc(Cl)cc2)=C(CN2CCN(c3ccc(C(=O)NS(=O)(=O)c4ccc(N[C@H](CCN5CCOCC5)CSc5ccccc5)c(S(=O)(=O)C(F)(F)F)c4)cc3)CC2)C1 [Navitoclax] + CC(C)C[C@H](NC(=O)[C@H](Cc1ccccc1)NC(=O)c1cnccn1)B(O)O [Bortezomib] (partner 0.002 µM) :: 1.19

Lab note: next compound to report on.
The value of relative viability measured for the compound CC1(C)CCC(c2ccc(Cl)cc2)=C(CN2CCN(c3ccc(C(=O)NS(=O)(=O)c4ccc(N[C@H](CCN5CCOCC5)CSc5ccccc5)c(S(=O)(=O)C(F)(F)F)c4)cc3)CC2)C1 [Navitoclax] + O=C(CCCCCCC(=O)Nc1ccccc1)NO [Vorinostat] (partner 1 µM) turned out to be 0.88

###

System: NCI-H1915
Assay: relative viability (nuclei count vs DMSO), 5 days (fraction); higher = more cells survive
Conditions: first compound 0.08 µM
The following compounds are listed with their measured relative viability values.

1) C=C1C(=O)O[C@@H](CCCCCCCC)[C@@H]1C(=O)O [C-75] + O=C(c1cc(Cc2n[nH]c(=O)c3ccccc23)ccc1F)N1CCN(C(=O)C2CC2)CC1 [Olaparib] (partner 8 µM) :: 0.243
2) C=C1C(=O)O[C@@H](CCCCCCCC)[C@@H]1C(=O)O [C-75] + O=C(CCCCCCC(=O)Nc1ccccc1)NO [Vorinostat] (partner 1 µM) :: 0.506

Lab note: next compound to report on.
The value of relative viability measured for the compound Oc1nc(-c2ccc(C(F)(F)F)cc2)nc2c1CSCC2 [XAV939] + CC(=O)c1c(C)c2cnc(Nc3ccc(N4CCNCC4)cn3)nc2n(C2CCCC2)c1=O [Palbociclib] (partner 0.5 µM) turned out to be 0.592

###

Tested on: LXF-289
Experiment: relative viability (nuclei count vs DMSO), 5 days (fraction); higher = more cells survive
Details: first compound 0.005 µM
The following compounds are listed with their measured relative viability values.

Sample answers from the record:
1) CC1(C)CCC(c2ccc(Cl)cc2)=C(CN2CCN(c3ccc(C(=O)NS(=O)(=O)c4ccc(N[C@H](CCN5CCOCC5)CSc5ccccc5)c(S(=O)(=O)C(F)(F)F)c4)cc3)CC2)C1 [Navitoclax] + COc1cc2c(Oc3ccc(NC(=O)C4(C(=O)Nc5ccc(F)cc5)CC4)cc3F)ccnc2cc1OCCCN1CCOCC1 [Foretinib] (partner 0.25 µM) :: 1.05
2) CC1(C)CCC(c2ccc(Cl)cc2)=C(CN2CCN(c3ccc(C(=O)NS(=O)(=O)c4ccc(N[C@H](CCN5CCOCC5)CSc5ccccc5)c(S(=O)(=O)C(F)(F)F)c4)cc3)CC2)C1 [Navitoclax] + COc1cccc2cc(-c3nc([C@H]4CC[C@H](C(=O)O)CC4)n4ncnc(N)c34)[nH]c12 [OSI-027] (partner 0.5 µM) :: 0.77
3) CC1(C)CCC(c2ccc(Cl)cc2)=C(CN2CCN(c3ccc(C(=O)NS(=O)(=O)c4ccc(N[C@H](CCN5CCOCC5)CSc5ccccc5)c(S(=O)(=O)C(F)(F)F)c4)cc3)CC2)C1 [Navitoclax] + NC(=O)Nc1cc(-c2cccc(F)c2)sc1C(=O)N[C@H]1CCCNC1 [AZD7762] (partner 0.2 µM) :: 1.11

The value of relative viability measured for the compound CC1(C)CCC(c2ccc(Cl)cc2)=C(CN2CCN(c3ccc(C(=O)NS(=O)(=O)c4ccc(N[C@H](CCN5CCOCC5)CSc5ccccc5)c(S(=O)(=O)C(F)(F)F)c4)cc3)CC2)C1 [Navitoclax] + CS(=O)(=O)CCNCc1ccc(-c2ccc3ncnc(Nc4ccc(OCc5cccc(F)c5)c(Cl)c4)c3c2)o1 [Lapatinib] (partner 2 µM) turned out to be 0.9

###

The following compounds are listed with their measured relative viability values.
System: LXF-289
Assay: relative viability (nuclei count vs DMSO), 5 days (fraction); higher = more cells survive
Conditions: first compound 0.08 µM
Provide a numeric answer; units are not to be included.

Sample answers from the record:
1) C=C1C(=O)O[C@@H](CCCCCCCC)[C@@H]1C(=O)O [C-75] + Cc1nc(NC(=O)N2CCC[C@H]2C(N)=O)sc1-c1ccnc(C(C)(C)C(F)(F)F)c1 [Alpelisib] (partner 2 µM) :: 1.01
2) C=C1C(=O)O[C@@H](CCCCCCCC)[C@@H]1C(=O)O [C-75] + Nc1nc2[nH]cc(CCc3ccc(C(=O)N[C@@H](CCC(=O)O)C(=O)O)cc3)c2c(=O)[nH]1 [Pemetrexed] (partner 0.2 µM) :: 0.834

The value of relative viability measured for the compound C=C1C(=O)O[C@@H](CCCCCCCC)[C@@H]1C(=O)O [C-75] + O=C(c1cc(Cc2n[nH]c(=O)c3ccccc23)ccc1F)N1CCN(C(=O)C2CC2)CC1 [Olaparib] (partner 8 µM) turned out to be 1.05

The value of relative viability measured for the compound Oc1nc(-c2ccc(C(F)(F)F)cc2)nc2c1CSCC2 [XAV939] + CCNC(=O)c1noc(-c2cc(C(C)C)c(O)cc2O)c1-c1ccc(CN2CCOCC2)cc1 [Luminespib] (partner 0.01 µM) turned out to be 0.727

The value of relative viability measured for the compound Oc1nc(-c2ccc(C(F)(F)F)cc2)nc2c1CSCC2 [XAV939] + Nc1nc2[nH]cc(CCc3ccc(C(=O)N[C@@H](CCC(=O)O)C(=O)O)cc3)c2c(=O)[nH]1 [Pemetrexed] (partner 0.2 µM) turned out to be 0.886

The value of relative viability measured for the compound Oc1nc(-c2ccc(C(F)(F)F)cc2)nc2c1CSCC2 [XAV939] + C[C@@H](Oc1cc(-c2cnn(C3CCNCC3)c2)cnc1N)c1c(Cl)ccc(F)c1Cl [Crizotinib] (partner 1 µM) turned out to be 0.833

Data provenance: the supplement of paper PMC10307832
